Hey, just so you know, these numbers are from ChEMBL document CHEMBL3091309.

Assay: Plasma concentration in rhesus monkey at 13.4 mg/kg, iv after 2 hrs by HPLC analysis
Assay type: ADME, organism-based, Macaca mulatta
Design: dose 13.4 mg/kg, route intravenous
property name: concentration at 2 h (ng/mL)

compound_structure_string=Cc1ccc(NC(=O)C(=O)NC2CC(C)(C)NC(C)(C)C2)cc1.Cl result=1090

---

Assay: Half life in Jcl:Sprague-Dawley rat at 2.5 mg, iv by HPLC analysis
Conditions: in vivo
property name: half-life (min)

compound_structure_string=Cc1ccc(NC(=O)C(=O)NC2CC(C)(C)NC(C)(C)C2)cc1 property_name=half-life result=8.46

---

Experiment: Initial plasma concentration in Jcl:Sprague-Dawley rat at 14 mg/kg, iv by HPLC analysis
Type: ADME, organism-based
Parameters: dose 14 mg/kg, route intravenous
property name: C0 (ng/mL)

compound_structure_string=Cc1ccc(NC(=O)C(=O)NC2CC(C)(C)NC(C)(C)C2)cc1 value_unit=ng/mL result=17300
